# TARGET OR SYSTEM: T1, Human soluble IL6-R (human, UniProt P08887 20-358)
# T1 construct: Bought soluble receptor; biotinylated in some Alphascreen assays; also called sIL6-R; hIL-6R
# T1 sequence (looked up): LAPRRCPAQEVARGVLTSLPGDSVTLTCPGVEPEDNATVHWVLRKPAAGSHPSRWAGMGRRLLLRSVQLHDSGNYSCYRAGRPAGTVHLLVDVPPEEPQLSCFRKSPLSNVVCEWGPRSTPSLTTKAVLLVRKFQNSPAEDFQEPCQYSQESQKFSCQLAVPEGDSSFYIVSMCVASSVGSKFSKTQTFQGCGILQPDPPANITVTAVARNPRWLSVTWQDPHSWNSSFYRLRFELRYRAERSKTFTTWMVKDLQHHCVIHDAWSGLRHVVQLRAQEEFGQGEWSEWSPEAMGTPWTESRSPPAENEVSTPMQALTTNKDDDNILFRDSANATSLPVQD
# TEST METHOD NOTES: SPR (Biacore 3000), IL6-R on CM5 chip
QUANTITY KIND: koff (s⁻¹)

# BINDER, QUANTITY KIND, UNITS LABEL, RESULT VALUE
rows = [
    ("IL6R71 (VHH, Humanized variant of IL6R04) VHH: EVQLVESGGGLVQPGGSLRLSCAASGFTFDDYDIGWFRQAPGKGREGVSGISSSDGNTYYADSVKGRFTISSDNAKNTVYLQMNSLRPEDTAVYYCAAEPPDSSWYLDGSPEFFKYWGQGTLVTVSS", "koff", "s⁻¹", 0.000153),
    ("IL6R65 (VHH, Humanized variant of IL6R03) VHH: EVQLVESGGGLVQPGGSLRLSCAASGSIFKVNAMGWYRQAPGKGRELVAGIISGGSTNYADSVKGRFTISRDNAKNTLYLQMNSLRPEDTAVYYCAFVTTNSDYDLGRDYWGQGTLVTVSS", "koff", "s⁻¹", 0.00235),
]

I = IL6R90 (VHH, Humanized variant of IL6R13) VHH: EVQLVESGGGLVQPGGSLRLSCAASGFTFDDYGMSWVRQAPGKALEWVSAISWNGNNTYYTESMKGRFTISRDNAKNTLYLQMNSLRPEDTAVYYCVKGSTAIVGVPPTYPDEYDYWGQGTLVTVSS
II = IL6R88 (VHH, Humanized variant of IL6R13) VHH: EVQLVESGGGLVQPGGSLRLSCAASGFTFDDYGMSWVRQAPGKGTEWVSAISWNGNNTYYTESMKGRFTISRDNAKNTLYLQMNSLRPEDTAVYYCVKGSTAIVGVPPTYPDEYDYWGQGTLVTVSS
III = IL6R89 (VHH, Humanized variant of IL6R13) VHH: EVQLVESGGGLVQPGGSLRLSCAASGFTFDDYGMSWVRQAPGRGTEWVSAISWNGNNTYYTESMKGRFTISRDNAKNTLYLQMNSLRPEDTAVYYCVKGSTAIVGVPPTYPDEYDYWGQGTLVTVSS
IV = IL6R87 (VHH, Humanized variant of IL6R13) VHH: EVQLVESGGGLVQPGGSLRLSCAASGFTFDDYGMSWVRQAPGKATEWVSAISWNGNNTYYTESMKGRFTISRDNAKNTLYLQMNSLRPEDTAVYYCVKGSTAIVGVPPTYPDEYDYWGQGTLVTVSS
Incoming: rank_up(items): orders items by reported koff in ascending numerical order. Give the order by naming the labels one after another as requested.
Outgoing: IV, III, II, I
